target: SARS-CoV-2 NSP3 Mac1 (Severe acute respiratory syndrome coronavirus 2, UniProt P0DTD1); format: binding; settings: ligand occupancy after refinement (phenix.refine); crystal soaking of Mac1
Lab note: compare Refined occupancy with 30, writing 1.0 if less and 0.0 if equal or more.

Examples with answers:
>  <MOLECULE>
Nc1nc(N)c2ncn(Cc3csc(Cl)n3)c2n1

>  <QUALITATIVE_LABEL>
0.0

$$$$
>  <MOLECULE>
Cn1ncc2ncnc(NS(=O)(=O)Cc3ccc(CC#N)cc3)c21

>  <QUALITATIVE_LABEL>
0.0

$$$$
>  <MOLECULE>
C[C@H]1CN(C(=O)c2cccc3[nH]c(=O)oc23)C[C@@H]1C(=O)O

>  <QUALITATIVE_LABEL>
1.0

$$$$
>  <MOLECULE>
O=C(O)C(F)(F)F.O=C(O)C1CN(c2ncnc3[nH]c4ccccc4c23)CC12CCC2 (stereo not shown)

>  <QUALITATIVE_LABEL>
1.0

$$$$
>  <MOLECULE>
O=S1(=O)CCC1CNc1ncnc2[nH]c3cc(F)ccc3c12 (stereo not shown)

>  <QUALITATIVE_LABEL>
1.0

$$$$
>  <MOLECULE>
O=C(NC1c2ccccc2CC1C(=O)O)c1ccc(NC(=O)C2CC2)cc1 (stereo not shown)

>  <QUALITATIVE_LABEL>
1.0

$$$$

Prompt line: # strict comparison: is reported Refined occupancy < 30? input = CC(=O)Nc1nc(C)c(S(=O)(=O)Nc2ccc(C)c(C#N)c2)s1
Response line: 0.0

---

target: SARS-CoV-2 NSP3 Mac1 (Severe acute respiratory syndrome coronavirus 2); type: binding; set-up: contains a conserved macrodomain enzyme (Mac1); conditions: DSF dose responsiveness, 1 µM nsp3 mac1; adj p given
# Spearman est (compound concentration vs apparent Tm) >= -0.2 gives true (1), anything below gives false (0)

>  <COMPOUND>
Cc1noc(-c2ccnc(-c3ccnc4[nH]ccc34)c2)n1

>  <QUALITATIVE_LABEL>
true (1)

$$$$
>  <COMPOUND>
O=C(Nc1cccnc1)Nc1nc2ccccc2c(=O)[nH]1

>  <QUALITATIVE_LABEL>
false (0)

$$$$

Prompt line: Does the compound O=c1[nH]nc(C2CCCN(c3ncnc4[nH]c5cc(F)ccc5c34)C2)o1 (stereo not shown) have recorded Spearman est (compound concentration vs apparent Tm) that is -0.2 or more?
Response line: true (1)

Prompt line: I'd appreciate it if you could say whether Cc1ccc(NS(=O)(=O)c2ccc(C(F)(F)F)cn2)c(O)n1 has Spearman est (compound concentration vs apparent Tm) at least equal to -0.2.
Response line: true (1)

Prompt line: Item CC1c2ccc(F)cc2CCN1C(=O)c1cccc(O)c1 (stereo not shown) with Spearman est (compound concentration vs apparent Tm) of -0.2 or above?
Response line: false (0)

Prompt line: Form field: Spearman est (compound concentration vs apparent Tm) at least -0.2? Entry: Cc1cc(-n2cncn2)ccc1C(=O)OCC1OCCc2ccccc21 (stereo not shown)
Response line: true (1)

Prompt line: Assess whether reported Spearman est (compound concentration vs apparent Tm) for O=C(NC(C(=O)O)c1c[nH]c2ccccc12)c1ncnc2[nH]ccc12 (stereo not shown) sits at -0.2 or higher.
Response line: false (0)

Prompt line: Evaluate CN(CC(=O)O)C(=O)c1ccc2n[nH]c(=O)n2c1 : Spearman est (compound concentration vs apparent Tm) at minimum -0.2?
Response line: false (0)

Prompt line: Is Spearman est (compound concentration vs apparent Tm) at least -0.2? Consider Cc1ccc([C@@H]2C[C@@H](C)CCN2C(=O)c2ncnc3[nH]ccc23)o1
Response line: false (0)

Prompt line: State whether the measured Spearman est (compound concentration vs apparent Tm) reaches -0.2, counting equality as reaching it, for CCc1c[nH]c2ncnc(N3CCCC(S(C)(=O)=O)C3)c12 (stereo not shown)
Response line: true (1)

Prompt line: Could you please find out whether O=S1(=O)CCC2(CCCN(c3ncnc4[nH]c5cc(F)ccc5c34)C2)C1 (stereo not shown) has Spearman est (compound concentration vs apparent Tm) that meets -0.2 or exceeds it?
Response line: true (1)
